Hey, just so you know, these numbers are from ChEMBL document CHEMBL1122730.

- Species: Mus musculus
- procedure-text: Inhibitory effect against contraction induced by PGF2-alpha in the isolated mouse uterus at a concentration of 10 E -5 M
- Assay type: functional
Please mark 1.0 if the recorded inhibition at 10 µM is equal to or greater than 20%, and 0.0 if it falls below.

- compound: "CCC1(CCC(=O)O)Cc2cc(OCc3ccccc3)ccc2C1=O (stereo not given)"
  class: 1.0
- compound: "CCCCC1(CCC(=O)O)Cc2cc(OCc3ccccc3)ccc2C1O (stereo not given)"
  class: 0.0
- compound: "O=C(O)CCC1(CCC(=O)O)Cc2cc(OCc3ccccc3)ccc2C1=O"
  class: 0.0
- compound: "CCCC1(CCC(=O)O)Cc2cc(OCc3ccccc3)ccc2C1=O (stereo not given)"
  class: 0.0
- compound: "CCC[C@@]1(CCC(=O)O)Cc2cc(OCc3ccccc3)c(OCc3ccccc3)cc2[C@H]1O"
  class: 0.0
